Organism: Rattus norvegicus
protocolSummary: Open TG-GATES - Regimen: Daily Repeat
Format: toxicity, organism-based, Sprague-Dawley
Design: regimen Daily Repeat, gender Male, age 6 weeks
conditions: in vivo, po, 0 mg/kg, […], tissue Plasma, route gavage, dose level Control, time 28 day
endpointName: TG (mg/dL)
Dear colleague, please return just the value in mg/dL, with no unit written.

- O=C(N[C@H](CO)[C@H](O)c1ccc([N+](=O)[O-])cc1)C(Cl)Cl [CHLORAMPHENICOL]: 136.6
- O=C(O)c1cccnc1 [NIACIN]: 121
- CCN1CCCC1CNC(=O)c1cc(S(N)(=O)=O)ccc1OC (stereo unspecified) [SULPIRIDE]: 167
- CC(=O)Oc1cc(C(C)C)c(OCCN(C)C)cc1C [MOXISYLYTE]: 116.5

Measured TG of C[C@]12CCC(=O)C=C1CC[C@@H]1[C@@H]2CC[C@@]2(C)[C@H]1CC[C@]2(C)O [METHYLTESTOSTERONE] : 120.6

Measured TG of CC(=N)S [THIOACETAMIDE] : 174.6

Measured TG of CC(C)(S)[C@@H](N)C(=O)O [PENICILLAMINE] : 140.8

Measured TG of CN1C(=O)OC(C)(C)C1=O [TRIMETHADIONE] : 188.4

###

Species on record: Rattus norvegicus
protocolSummary: Open TG-GATES - Regimen: Daily Repeat
Assay type: toxicity, organism-based, Sprague-Dawley
Design: regimen Daily Repeat, gender Male, age 6 weeks
conditions: in vivo, po, 0 mg/kg, […], tissue Plasma, route gavage, dose level Control, time 14 day
endpointName: Ca (mg/dL)
Dear colleague, please return just the value in mg/dL, with no unit written.

// below: answered molecules
• CCc1oc2ccccc2c1C(=O)c1cc(I)c(O)c(I)c1 = 10.5
• C[C@](N)(Cc1ccc(O)c(O)c1)C(=O)O = 11.3
• CC(C)(S)[C@@H](N)C(=O)O = 10.9
• CCN1CCCC1CNC(=O)c1cc(S(N)(=O)=O)ccc1OC (stereo not given) [SULPIRIDE] = 11
• CC(C)C(=O)Nc1ccc([N+](=O)[O-])c(C(F)(F)F)c1 [FLUTAMIDE] = 10.6
• C[C@]12CCC(=O)C=C1CC[C@@H]1[C@@H]2CC[C@@]2(C)[C@H]1CC[C@]2(C)O = 10.6

Measured Ca of O=C(N[C@H](CO)[C@H](O)c1ccc([N+](=O)[O-])cc1)C(Cl)Cl : 11.1

Measured Ca of O=C(O)c1cccnc1 : 10.6

Measured Ca of CC(=N)S [THIOACETAMIDE] : 10.1

Measured Ca of Oc1ncnc2[nH]ncc12 : 10.9

###

Listing of recorded Mono by entry.
Species on record: Rattus norvegicus
protocolSummary: Open TG-GATES - Regimen: Daily Repeat
Assay type: toxicity, organism-based, Sprague-Dawley
Set-up: regimen Daily Repeat, gender Male, age 6 weeks
conditions: in vivo, po, 1000 mg/kg, […], tissue Blood, route gavage, dose level High, time 28 day

// below: answered compounds
* O=C(O)c1cccnc1 | 3.6%
* CC(C)(S)[C@@H](N)C(=O)O | 4.2%

Measured Mono of CCN1CCCC1CNC(=O)c1cc(S(N)(=O)=O)ccc1OC (centres undefined) [SULPIRIDE] : 2%

Measured Mono of O=C(N[C@H](CO)[C@H](O)c1ccc([N+](=O)[O-])cc1)C(Cl)Cl : 1.6%

###

Species on record: Rattus norvegicus
protocolSummary: Open TG-GATES - Regimen: Daily Repeat
Format: toxicity, organism-based, Sprague-Dawley
Set-up: regimen Daily Repeat, gender Male, age 6 weeks
conditions: in vivo, po, 100 mg/kg, […], tissue Blood, route gavage, dose level Low, time 28 day
Listing of recorded RBC by entry.
Dear colleague, please return just the value in x10_4/ul, with no unit written.

// below: answered molecules
- CC(C)(S)[C@@H](N)C(=O)O [PENICILLAMINE]: 812.4
- CCN1CCCC1CNC(=O)c1cc(S(N)(=O)=O)ccc1OC (centres undefined) [SULPIRIDE]: 812.6
- O=C(O)c1cccnc1 [NIACIN]: 770

Measured RBC of O=C(N[C@H](CO)[C@H](O)c1ccc([N+](=O)[O-])cc1)C(Cl)Cl [CHLORAMPHENICOL] : 767.4

###

Organism: Rattus norvegicus
protocolSummary: Open TG-GATES - Regimen: Daily Repeat
Assay type: toxicity, organism-based, Sprague-Dawley
Parameters: regimen Daily Repeat, gender Male, age 6 weeks
conditions: in vivo, po, 0 mg/kg, […], tissue Blood, route gavage, dose level Control, time 28 day
Listing of recorded RBC by entry.
Returns: string containing the numeric result and its unit.

// below: answered compounds
• CCN1CCCC1CNC(=O)c1cc(S(N)(=O)=O)ccc1OC (stereo unspecified) [SULPIRIDE] = 827.2 x10_4/ul
• Oc1ncnc2[nH]ncc12 = 766.8 x10_4/ul
• CCc1oc2ccccc2c1C(=O)c1cc(I)c(O)c(I)c1 = 812.6 x10_4/ul
• Nc1nc(N)c2nc(-c3ccccc3)c(N)nc2n1 = 819.6 x10_4/ul

Measured RBC of C[C@](N)(Cc1ccc(O)c(O)c1)C(=O)O : 774 x10_4/ul

Measured RBC of C#C[C@]1(O)CC[C@H]2[C@@H]3CCc4cc(O)ccc4[C@H]3CC[C@@]21C : 742.6 x10_4/ul

Measured RBC of CCC(C)(C)C(=O)O[C@H]1C[C@@H](C)C=C2C=C[C@H](C)[C@H](CC[C@@H]3C[C@@H](O)CC(=O)O3)[C@H]21 : 753.6 x10_4/ul

Measured RBC of O=C(O)c1cccnc1 : 754.4 x10_4/ul

Measured RBC of CC(C)C(=O)Nc1ccc([N+](=O)[O-])c(C(F)(F)F)c1 [FLUTAMIDE] : 765.6 x10_4/ul

Measured RBC of CCSCC[C@H](N)C(=O)O : 778.4 x10_4/ul

Measured RBC of C[C@]12CCC(=O)C=C1CC[C@@H]1[C@@H]2CC[C@@]2(C)[C@H]1CC[C@]2(C)O : 794.6 x10_4/ul

Measured RBC of O=C(N[C@H](CO)[C@H](O)c1ccc([N+](=O)[O-])cc1)C(Cl)Cl : 773 x10_4/ul

Measured RBC of CC(C)(S)[C@@H](N)C(=O)O : 783.8 x10_4/ul

Measured RBC of CC(=N)S [THIOACETAMIDE] : 807.6 x10_4/ul

Measured RBC of CC(=O)Oc1cc(C(C)C)c(OCCN(C)C)cc1C : 741 x10_4/ul

Measured RBC of CN1C(=O)OC(C)(C)C1=O : 778.2 x10_4/ul

###

Listing of recorded AST by entry.
Species on record: Rattus norvegicus
protocolSummary: Open TG-GATES - Regimen: Daily Repeat
Type: toxicity, organism-based, Sprague-Dawley
Design: regimen Daily Repeat, gender Male, age 6 weeks
conditions: in vivo, po, 100 mg/kg, […], tissue Plasma, route gavage, dose level Low, time 7 day

// below: answered molecules
* O=C(N[C@H](CO)[C@H](O)c1ccc([N+](=O)[O-])cc1)C(Cl)Cl | 71.2 IU/L
* O=C(O)c1cccnc1 | 69 IU/L
* CCN1CCCC1CNC(=O)c1cc(S(N)(=O)=O)ccc1OC (centres undefined) [SULPIRIDE] | 66.6 IU/L

Measured AST of CC(C)(S)[C@@H](N)C(=O)O : 66.2 IU/L

###

Organism: Rattus norvegicus
protocolSummary: Open TG-GATES - Regimen: Daily Repeat
Type: toxicity, organism-based, Sprague-Dawley
Set-up: regimen Daily Repeat, gender Male, age 6 weeks
conditions: in vivo, po, 0 mg/kg, 72 h, tissue Plasma, route gavage, dose level Control, time 3 day
Listing of recorded Cl by entry.
Dear colleague, please return just the value in meq/L, with no unit written.

• CC(=N)S [THIOACETAMIDE] = 104.2
• CC(C)C(=O)Nc1ccc([N+](=O)[O-])c(C(F)(F)F)c1 [FLUTAMIDE] = 103.8
• Nc1nc(N)c2nc(-c3ccccc3)c(N)nc2n1 = 105.2
• C[C@](N)(Cc1ccc(O)c(O)c1)C(=O)O = 106.6
• CCc1oc2ccccc2c1C(=O)c1cc(I)c(O)c(I)c1 = 104.6
• CCN1CCCC1CNC(=O)c1cc(S(N)(=O)=O)ccc1OC (stereo unspecified) [SULPIRIDE] = 104.4
• CN1C(=O)OC(C)(C)C1=O = 106
• C#C[C@]1(O)CC[C@H]2[C@@H]3CCc4cc(O)ccc4[C@H]3CC[C@@]21C = 106.8

Measured Cl of CCSCC[C@H](N)C(=O)O : 101

Measured Cl of CC(C)(S)[C@@H](N)C(=O)O : 106.2

Measured Cl of O=C(O)c1cccnc1 : 104.2

The measured values listed here are drawn from ChEMBL document CHEMBL3885861.
